- Tested on: SF-295 CNS
- Protocol summary: NCI-60 one-dose screen, 48 h (100 = growth as untreated, 0 = no growth, -100 = all killed)
- Run parameters: 10 µM unless noted
About 83,000 compounds went through this panel and 20% of them were active in at least one assay; those are over-represented in the sample as a whole.
Quantity kind: growth (%)
The response must be a number in % with no trailing unit.

The measured growth associated with CC(C)[C@H]1COC(=O)N1[C@@H]1C(=O)N([C@@H](CCC(=O)N2CCN(C3CCCC3)CC2)C(=O)N[C@@H]2CCCc3ccccc32)[C@@H]1/C=C/c1cccc(Br)c1 reads 51.5

Memo: COCCOC(=O)C1=C(C)NC(=S)NC1c1ccc2c(c1)OCO2 (stereo not drawn) , reported growth: 105

Memo: CS(=O)(=O)c1ccc(-c2cnc3ccc(-c4cccc(S(C)(=O)=O)c4)nn23)cc1 , reported growth: 53.7

// sample COc1cc(/C=N\NC(=O)CN2CCN(c3cc4c(cc3F)c(=O)c(C(=O)N/N=C/c3ccc(O)c(OC)c3)cn4C3CC3)CC2)ccc1O , its growth was 90.5

growth in this record for COc1ccc(C2Nc3ccccc3-n3cccc32)cc1 (stereo not drawn) : 92.4

// sample CN1CCN(Cc2ccc(NC(=O)c3[nH]ncc3Nc3ccnc4ccsc34)cc2)CC1 , its growth was 56.6

Entry O=C(CN1CCN(c2cc3c(cc2F)c(=O)c(C(=O)O)cn3C2CC2)CC1)Nc1nc(-c2ccccc2)cs1 , growth reported as 69.9

# growth of O=C(Nc1cccc2[nH]c(C(F)(F)F)nc12)c1ccc(Br)cc1F = 35.3

----------
- Test system: HT29 colon
- Protocol summary: NCI-60 one-dose screen, 48 h (100 = growth as untreated, 0 = no growth, -100 = all killed)
- Run parameters: 10 µM unless noted
- Experimental: Growth inhibition of the HT29 human tumor cell line is measured as a screen for anti-cancer activity. Cells are grown in 96 well plates and exposed to the test compound for 48 hours. Compounds are tested at a single concentration, which is 10^-5 M for most compounds. The reported endpoint is percent growth (GI% or GIPRCNT), where numbers from 0 - 100% represent growth inhibition, and numbers from -100% - 0 represent cell death. For example, a value of 40 represents 60% growth inhibition. […]
About 83,000 compounds went through this panel and 20% of them were active in at least one assay; those are over-represented in the sample as a whole.
Quantity kind: growth (%)
Just the number in %, nothing appended.

Consider CCN(CC)CCCNc1cc(OC)cc2nc3cc(Cl)ccc3nc12 . Its measured growth is -9.49

Per the records, this compound ( COC1C/C(=N\O)C2OC(c3ccccc3)OCC2O1 (stereo unspecified) ) has growth equal to 113

Record c1ccc2c(Nc3cccc4ccccc34)cccc2c1 , field growth: 15.8

Recorded growth (compound CC#CC#Cc1cccc(=O)o1 ): 45.3

The compound identified as Cc1[nH]n(-c2ccccc2)c2nc3nncc3c(-c3ccc(Cl)cc3)c12 registered its growth at 79.7

COc1cc(-c2cnc3nonc3n2)c(OC)c2c1OCO2 yielded growth of 104

The compound identified as CCCCCn1cnc2c(=S)nc[nH]c21 registered its growth at 114

# growth (compound: C=C1C(=O)O[C@H]2[C@H]1CC/C(Cn1cc(Cc3c[nH]c4ccccc34)nn1)=C\CC[C@@]1(C)O[C@@H]21 ) is 3.04

Looking up Cc1cc(-c2nc3ccccc3s2)ccc1NC(=O)COc1ccc(Cl)cc1 , I found its growth recorded as 101

Lab note: O=C1C=CC(Nc2ccccc2[N+](=O)[O-])C1Nc1ccccc1[N+](=O)[O-] (stereo unspecified) gave growth of -32.3

Item: CCC(c1ccccc1)C(CC)c1ccc(O)c(O)c1 (stereo unspecified) | growth: 104

Record summary for CC/C=C\C[C@H](O)C/C=C1/C(=O)C=C[C@@H]1C/C=C\CCCC(=O)OC(C)C : reported growth = -49.7

The value of growth measured for the compound COc1cc2c(cc1O)CCc1cc(O)cc(OC)c1-2 turned out to be 95.6

Note to self: growth recorded for COc1cnc2c(c1)C(=O)c1c-2n(CCCN2CCNCC2)c(=O)c2cc([N+](=O)[O-])ccc12 was -80

Given item CCOC(=O)/C=C/C(=O)[C@H](CC(C)C)NC(=O)[C@H](Cc1ccccc1)NC(=O)OCc1ccccc1 , the value recorded as its growth is 57.9

Given item CCCNc1nc(SC)nc(-c2cccc(N)c2)c1C#N , the value recorded as its growth is 116

Value of growth reported for the compound O=C(CCCN1CCOCC1)Nc1ccc(Cn2nnc3c2C(=O)c2nnn(Cc4ccc(NC(=O)CCCN5CCOCC5)cc4)c2C3=O)cc1 is 1.66

According to the records, this compound CCCCCCCCCCCCNC(=O)[C@H]1CSC(c2ccc(OC)c(F)c2)N1 (stereo partly specified) displays growth of -83.1

// field: growth; key: Cc1cc2cc3cc(C)c(N(C)C)cc3[n+](C)c2cc1N(C)C ; value = 16.6

// field: growth; key: Cc1cc(Nc2nc(N3CCNCC3)nc3ccccc23)n[nH]1 ; value = 82.1

get_value(item= CC(C)[C@H]1COC(=O)N1[C@@H]1C(=O)N([C@@H](CCC(=O)N2CCN(C3CCCC3)CC2)C(=O)N[C@@H]2CCCc3ccccc32)[C@@H]1/C=C/c1cccc(Br)c1 , readout=growth) returns -15.3
